measurement-protocol: Trial 000015 Part 2: pharmacokinetics after multiple intranasal administrations
Format: in vivo, human
run-parameters: female, human, plasma, inhaled or intranasal, 50 ug, multiple i.n. doses every 3 hours, 50 μg, Dose No. 1; read-out: Cmax Geom. mean (% CV)
*1 amine or outer side, *2 acyl side, *3 side chain or, on linkers, in order; H or OH if unused. Where a SMILES comes first, the peptide text is derived from it. Bridges are numbered along the chain shown (N, C = ends). [ ]: non-standard residue; d: D form. N(4-F-Bzl)Gly = O=C(O)CNCc1ccc(F)cc1; X1 = O=C(CCC[*:2])[*:1]
experimental-endpoint: Cmax (ng/mL)
Give the number; ng/mL is assumed, so skip it.

Q. May I ask what Cmax has been recorded for CC[C@H](C)[C@@H]1NC(=O)[C@H](Cc2ccc(O)cc2)NC(=O)CCCSC[C@@H](C(=O)N(CC(=O)N[C@@H](CC(C)C)C(=O)NCC(N)=O)Cc2ccc(F)cc2)NC(=O)[C@H](CC(N)=O)NC(=O)[C@H](CCC(N)=O)NC1=O [merotocin] (YIQNC[N(4-F-Bzl)Gly]LG-NH2; linker N-5 via X1) ?
A. 0.0275
